biological target: receptor 5.24 (Carassius auratus); construct: The receptor 5.24 full length cDNA detects 1-2 bands in genomic DNA blots; expressed in transfected cells; host or cells: HEK 293 cells expressing SV40 large T antigen (293-TSA); assay: biochemical; type: binding; details: displacement of 3H-L-arginine from membranes of HEK 293 cells expressing receptor 5.24; read-out: Ki (binding affinity)
Sequence (Q9PW88 25-877): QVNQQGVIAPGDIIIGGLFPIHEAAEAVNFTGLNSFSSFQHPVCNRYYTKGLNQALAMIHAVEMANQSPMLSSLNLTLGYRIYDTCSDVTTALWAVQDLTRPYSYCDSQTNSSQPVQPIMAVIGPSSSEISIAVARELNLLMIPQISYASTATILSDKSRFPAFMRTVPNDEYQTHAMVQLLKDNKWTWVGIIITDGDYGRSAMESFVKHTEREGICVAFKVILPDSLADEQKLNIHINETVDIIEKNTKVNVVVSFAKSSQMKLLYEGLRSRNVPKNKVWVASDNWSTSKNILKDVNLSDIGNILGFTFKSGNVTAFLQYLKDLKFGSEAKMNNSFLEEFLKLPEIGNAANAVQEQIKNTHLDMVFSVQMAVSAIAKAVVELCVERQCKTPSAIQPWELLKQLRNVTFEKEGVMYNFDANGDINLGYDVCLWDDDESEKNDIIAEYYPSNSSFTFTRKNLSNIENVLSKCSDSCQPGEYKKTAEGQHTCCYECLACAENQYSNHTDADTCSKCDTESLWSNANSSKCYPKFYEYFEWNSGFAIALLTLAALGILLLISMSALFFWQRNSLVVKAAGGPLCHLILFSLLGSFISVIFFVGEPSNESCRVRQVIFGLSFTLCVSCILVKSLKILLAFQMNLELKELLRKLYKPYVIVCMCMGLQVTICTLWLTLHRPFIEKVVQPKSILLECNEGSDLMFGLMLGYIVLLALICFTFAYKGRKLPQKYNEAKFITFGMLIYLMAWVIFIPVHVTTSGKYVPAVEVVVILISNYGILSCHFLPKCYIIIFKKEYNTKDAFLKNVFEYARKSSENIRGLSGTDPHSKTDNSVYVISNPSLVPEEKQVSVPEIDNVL
Reported pKi values follow for various compounds
Scale: negative log10 of molar concentration, which is what pKi denotes.

Example compounds with recorded pKi:
>>> datavalue("NC(=O)NCCC[C@H](N)C(=O)O [L-Citruline]")
6.02
>>> datavalue("CSCC[C@H](N)C(=O)O [L-Methionine]")
6.09

Problem: Please supply the value of reported pKi for the item N[C@@H](CO)C(=O)O [L-Serine]
Solution: 5.55

Problem: Please supply the value of reported pKi for the item N[C@@H](CCC(=O)O)C(=O)O [L-Glutamate]
Solution: 5.17

Problem: Please supply the value of reported pKi for the item N[C@@H](Cc1ccccc1)C(=O)O [L-Phenylalanine]
Solution: 5.24

Problem: Please supply the value of reported pKi for the item N[C@@H](Cc1c[nH]c2ccccc12)C(=O)O [L-Tryptophan]
Solution: 5.39

Problem: Please supply the value of reported pKi for the item NCC(=O)O [L-Glycine]
Solution: 5.41

Problem: Please supply the value of reported pKi for the item NC(=O)C[C@H](N)C(=O)O [L-Asparagine]
Solution: 5.68

Problem: Please supply the value of reported pKi for the item COC(=O)[C@@H](N)CCCNC(=N)N[N+](=O)[O-] [L-NAME]
Solution: 5.99

Problem: Please supply the value of reported pKi for the item CC(C)C[C@H](N)C(=O)O [L-Leucine]
Solution: 5.36

Problem: Please supply the value of reported pKi for the item C[C@H](N)C(=O)O [L-Alanine]
Solution: 5.25

Problem: Please supply the value of reported pKi for the item CC(C)[C@H](N)C(=O)O [L-Valine]
Solution: 5.21

Problem: Please supply the value of reported pKi for the item CC[C@H](C)[C@H](N)C(=O)O [L-Isoleucine]
Solution: 5.66

Problem: Please supply the value of reported pKi for the item O=C(O)[C@@H]1CCCN1 [L-Proline]
Solution: 4.24

Problem: Please supply the value of reported pKi for the item NC(=O)CC[C@H](N)C(=O)O [L-Glutamine]
Solution: 6.49

Problem: Please supply the value of reported pKi for the item N[C@@H](CS)C(=O)O [L-Cysteine]
Solution: 6.28

Problem: Please supply the value of reported pKi for the item C[C@@H](O)[C@H](N)C(=O)O [L-Threonine]
Solution: 5.49
